Tested on: NCI-H1666 (Lung Adenocarcinoma)
Experiment: Bliss excess, mean over the matrix (fraction); higher = more synergy
ASSAY_READOUT: Bliss excess

[
  {
    "COMPOUND": "C=CCn1c(=O)c2cnc(Nc3ccc(N4CCN(C)CC4)cc3)nc2n1-c1cccc(C(C)(C)O)n1 [AZD1775] + O=C(c1cc(Cc2n[nH]c(=O)c3ccccc23)ccc1F)N1CCN(C(=O)C2CC2)CC1 [Olaparib] (first compound max 1 µM, partner max 10 µM)",
    "MEAS_VALUE": 0.0278
  },
  {
    "COMPOUND": "N#Cc1cnc(Nc2cc(NC[C@H]3CNCCO3)c(C(F)(F)F)cn2)cn1 [SRA737] + Nc1ccn([C@@H]2O[C@H](CO)[C@@H](O)C2(F)F)c(=O)n1 [Gemcitabine] (first compound max 10 µM, 7x7, partner max 0.3 µM)",
    "MEAS_VALUE": 0.0128
  },
  {
    "COMPOUND": "Cc1cc2ncnn2cc1Nc1ncc2c(n1)n(C1CCOCC1)c(=O)n2C [AZD7648] + CN(C)CCCOc1ccc(-c2ccc3ncc4c(c3c2)n(C2CCOCC2)c(=O)n4C)cn1 [AZD0156] (first compound max 10 µM, 7x7, partner max 1 µM)",
    "MEAS_VALUE": -0.0072
  },
  {
    "COMPOUND": "COc1cccc(OCCCN)c1-c1cc(Nc2cnc(C#N)cn2)n[nH]1 [Prexasertib] + C[C@@H]1COCCN1C2=NC(=NC(=C2)C3(CC3)[S@](=N)(=O)C)C4=C5C=CNC5=NC=C4 [AZD6738] (first compound max 1 µM, 7x7, partner max 10 µM)",
    "MEAS_VALUE": 0.0338
  }
]

* * *

Tested on: A549 (Lung Adenocarcinoma)
Assay: combination Emax (second highest fraction inhibited in the dose matrix, 72 h); higher = more inhibition; extreme values may be limits of the assay
ASSAY_READOUT: combination Emax

[
  {
    "MOLECULE": "Cc1c2c(nn1C)CSCc1cc(n(C)n1)CSc1cc(c3ccccc3c1)OCCCc1c(C(=O)O)n(C)c3c-2c(Cl)ccc13 [AZD5991] + C[C@@H](Nc1cc(F)cc(F)c1)c1cc(C(=O)N(C)C)cc2c(=O)cc(N3CCOCC3)oc12 [AZD8186] (first compound max 1 µM, 7x7, partner max 3 µM)",
    "MEAS_VALUE": 0.476
  }
]

* * *

Quick list: Bliss excess per entry.
System: COLO-824 (Breast Carcinoma)
Test: Bliss excess, mean over the matrix (fraction); higher = more synergy

[
  {
    "MOLECULE": "CN(CCO)CC[C@H](CSc1ccccc1)Nc1ccc(S(=O)(=O)NC(=O)c2ccc(N3CCC([C@@H](O)c4ccccc4-c4ccc(Cl)cc4)CC3)cc2)cc1S(=O)(=O)C(F)(F)F [AZD4320] + CN(C)CCCOc1ccc(-c2ccc3ncc4c(c3c2)n(C2CCOCC2)c(=O)n4C)cn1 [AZD0156] (first compound max 1 µM, 7x7, partner max 1 µM)",
    "Bliss excess": 0.0031
  },
  {
    "MOLECULE": "COc1cccc(OCCCN)c1-c1cc(Nc2cnc(C#N)cn2)n[nH]1 [Prexasertib] + CCc1c2c(nc3ccc(O)cc13)-c1cc3c(c(=O)n1C2)COC(=O)[C@]3(O)CC [SN-38] (first compound max 1 µM, 7x7, partner max 0.3 µM)",
    "Bliss excess": 0.101
  },
  {
    "MOLECULE": "Cn1cnc2c(F)c(Nc3ccc(Br)cc3Cl)c(C(=O)NOCCO)cc21 [Selumetinib] + C[C@@H]1COCCN1C2=NC(=NC(=C2)C3(CC3)[S@](=N)(=O)C)C4=C5C=CNC5=NC=C4 [AZD6738] (first compound max 10 µM, 7x7, partner max 10 µM)",
    "Bliss excess": -0.0111
  },
  {
    "MOLECULE": "Cc1c2c(nn1C)CSCc1cc(n(C)n1)CSc1cc(c3ccccc3c1)OCCCc1c(C(=O)O)n(C)c3c-2c(Cl)ccc13 [AZD5991] + C1CN(CCC1(C(=O)N[C@@H](CCO)C2=CC=C(C=C2)Cl)N)C3=NC=NC4=C3C=CN4 [Capivasertib] (first compound max 1 µM, 7x7, partner max 3 µM)",
    "Bliss excess": 0.01
  },
  {
    "MOLECULE": "Cc1nc(Nc2ncc(C(=O)Nc3c(C)cccc3Cl)s2)cc(N2CCN(CCO)CC2)n1 [Dasatinib] + CC(=O)Nc1cccc(-n2c(=O)n(C3CC3)c(=O)c3c(Nc4ccc(I)cc4F)n(C)c(=O)c(C)c32)c1 [Trametinib] (first compound max 2 µM, 7x7, partner max 1 µM)",
    "Bliss excess": -0.0774
  },
  {
    "MOLECULE": "Cc1c2c(nn1C)CSCc1cc(n(C)n1)CSc1cc(c3ccccc3c1)OCCCc1c(C(=O)O)n(C)c3c-2c(Cl)ccc13 [AZD5991] + Cc1cc2ncnn2cc1Nc1ncc2c(n1)n(C1CCOCC1)c(=O)n2C [AZD7648] (first compound max 1 µM, 7x7, partner max 10 µM)",
    "Bliss excess": -0.0187
  },
  {
    "MOLECULE": "CC1(C)CCC(CN2CCN(c3ccc(C(=O)NS(=O)(=O)c4ccc(NCC5CCOCC5)c([N+](=O)[O-])c4)c(Oc4cnc5[nH]ccc5c4)c3)CC2)=C(c2ccc(Cl)cc2)C1 [Venetoclax] + Cn1cnc2c(F)c(Nc3ccc(Br)cc3Cl)c(C(=O)NOCCO)cc21 [Selumetinib] (first compound max 1 µM, 7x7, partner max 3 µM)",
    "Bliss excess": 0.0356
  }
]

These measurements were taken from the supplement of paper PMC11061612.
